Data origin: patent US5393761A

biological target: serotonin S2 (5-HT2) receptors in rat cortex (Rattus norvegicus, UniProt P14842)
Sequence (P14842 whole entry): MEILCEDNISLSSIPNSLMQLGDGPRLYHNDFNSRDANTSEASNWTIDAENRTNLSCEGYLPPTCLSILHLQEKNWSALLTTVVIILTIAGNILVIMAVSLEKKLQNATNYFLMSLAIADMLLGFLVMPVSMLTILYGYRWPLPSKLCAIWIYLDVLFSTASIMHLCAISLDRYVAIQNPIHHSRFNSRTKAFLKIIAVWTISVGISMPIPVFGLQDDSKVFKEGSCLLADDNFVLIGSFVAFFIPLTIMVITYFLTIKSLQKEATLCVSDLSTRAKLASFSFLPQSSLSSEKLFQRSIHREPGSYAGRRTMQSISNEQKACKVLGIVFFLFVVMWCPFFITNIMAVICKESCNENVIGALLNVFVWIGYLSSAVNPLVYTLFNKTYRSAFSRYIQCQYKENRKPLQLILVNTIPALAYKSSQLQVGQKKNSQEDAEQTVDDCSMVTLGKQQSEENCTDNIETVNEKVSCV
Where a name gives a salt, the structure may show the parent alone.
quantityMeasured: pIC50
Numbers only, as −log10 of the molar value.

>>> readoutvalue("Cc1ccc2c(c1)c(-c1ccc(F)cc1)cn2C1CCN(C)CC1 [Compound 11a]")
8.35
>>> readoutvalue("CC(C)N1CCN(CCN2CCC(n3cc(-c4ccc(F)cc4)c4ccc(Cl)cc43)CC2)C1=O [Compound 4c, hydrochloride, hydrate]")
8.43
>>> readoutvalue("Cc1ccc2c(c1)c(-c1ccc(F)cc1)cn2C1CCN(CCO)CC1 [Compound 16a, oxalate]")
7.66
>>> readoutvalue("O=C1NCCN1CCN1CCC(n2cc(-c3ccc(F)cc3)c3cc(C(F)(F)F)ccc32)CC1")
8.21
>>> readoutvalue("CN1CCN(CCN2CCC(n3cc(-c4ccc(F)cc4)c4ccc(Cl)cc43)CC2)C1=O")
8.82
>>> readoutvalue("CC(C)N1CCN(CCN2CCC(n3cc(-c4ccc(F)cc4)c4cc(C(F)(F)F)ccc43)CC2)C1=O")
7.96

I have 4 molecules here; please give me pIC50 for each one.
1. CC(C)N1CCN(CCN2CCC(n3cc(-c4ccc(F)cc4)c4cc(F)ccc43)CC2)C1=O
2. O=C1NCCN1CCN1CCC(n2cc(-c3ccc(F)cc3)c3ccc(Cl)cc32)CC1
3. O=C1NCCN1CCN1CCC(n2c(Br)c(-c3ccc(F)cc3)c3ccccc32)CC1
4. O=C1NCCN1CCN1CCC(n2cc(-c3ccccc3)c3cc(Cl)ccc32)CC1

Data returned:
8.51
8.72
7.96
7.54

----------
Field: IC50. Provide a value for each of the compounds that follow.
target: dopamine D-2 receptors in rat corpus striatum (Rattus norvegicus, UniProt P61169); test: Inhibition of ^3H-spiperone (spiroperidol) binding to dopamine D-2 receptors in rat corpus striatum in vitro; conditions: 0.5 nM ^3H-spiperone, rat striatum membranes, 37° C., 10 min
Sequence (P61169 whole entry): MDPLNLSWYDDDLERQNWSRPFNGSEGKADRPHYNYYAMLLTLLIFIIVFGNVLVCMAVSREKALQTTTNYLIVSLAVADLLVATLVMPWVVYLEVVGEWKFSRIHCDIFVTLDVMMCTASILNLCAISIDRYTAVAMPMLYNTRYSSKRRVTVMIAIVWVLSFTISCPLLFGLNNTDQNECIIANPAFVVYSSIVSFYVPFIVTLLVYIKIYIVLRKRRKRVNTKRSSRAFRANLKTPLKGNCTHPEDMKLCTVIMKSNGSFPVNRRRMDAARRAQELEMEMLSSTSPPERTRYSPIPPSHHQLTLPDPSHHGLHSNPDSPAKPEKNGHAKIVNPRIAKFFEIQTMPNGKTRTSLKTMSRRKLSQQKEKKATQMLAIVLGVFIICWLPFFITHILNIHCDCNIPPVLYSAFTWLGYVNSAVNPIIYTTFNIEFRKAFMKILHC
Counter-ions that a name gives are not always drawn.
One number for each entry, in nM.

Solved cases below.
>>> readoutvalue("CC(=O)N1CCN(CCN2CCC(n3cc(-c4ccc(F)cc4)c4cc(C)ccc43)CC2)C1=O [Compound 21a, oxalate]")
890
>>> readoutvalue("O=C1NCCN1CCN1CCC(N2CC(c3ccc(F)cc3)c3cc(F)ccc32)CC1 (stereo not drawn)")
230
>>> readoutvalue("O=C1NCCN1CCN1CCC(n2cc(-c3ccc(F)cc3)c3cc(F)ccc32)CC1")
250
>>> readoutvalue("Cc1ccc2c(c1)c(-c1ccc(F)cc1)cn2C1CCN(CCN2CCN(C(C)C)C2=O)CC1 [Compound 4h, oxalate]")
1100
>>> readoutvalue("Cc1ccc2c(c1)c(-c1ccc(F)cc1)cn2C1CCN(C(C)C)CC1")
330

I have 8 compounds here; please give me IC50 for each one.
1. Cc1ccc2c(c1)c(-c1ccc(F)cc1)cn2C1CCN(C)CC1 [Compound 11a]
2. O=C1NCCN1CCN1CCC(n2cc(-c3ccc(F)cc3)c3cc(Cl)ccc32)CC1
3. O=C1OCCN1CCN1CCC(n2cc(-c3ccc(F)cc3)c3cc(F)ccc32)CC1
4. Cc1ccc2c(c1)c(-c1ccc(F)cc1)cn2C1=CCN(CCN2CCNC2=O)CC1
5. CC(C)N1CCN(CCN2CCC(n3cc(-c4ccc(F)cc4)c4cc(Cl)ccc43)CC2)C1=O
6. O=C1NCCN1CCN1CCC(n2cc(-c3ccc(F)cc3)c3ccccc32)CC1
7. CC(C)N1CCN(CCN2CCC(n3cc(-c4ccc(F)cc4)c4ccc(Cl)cc43)CC2)C1=O [Compound 4c, hydrochloride, hydrate]
8. Cc1ccc2c(c1)c(-c1ccc(F)cc1)cn2N1CCN(C)CC1 [Compound 20a]

Data returned:
540
410
790
320
570
120
42
3900

I have 2 compounds here; please give me IC50 for each one.
1. Cc1ccc2c(c1)c(-c1ccc(F)cc1)cn2C1CCN(CCO)CC1 [Compound 16a, oxalate]
2. Cc1ccc2c(c1)c(-c1ccc(F)cc1)c(C)n2C1CCN(C)CC1

Data returned:
1500
2600

----------
target: serotonin S2 (5-HT2) receptors in rat cortex (Rattus norvegicus); construct: Serotonin S2 (5-HT2) receptors in membranes from rat; from tissue; host or cells: cerebral cortex membranes of male Wistar rats (printed 'conical tissue', a misprint for cortical); assay: Inhibition of ^3H-ketanserin binding to serotonin S2 (5-HT2) receptors in rat cortex in vitro; conditions: 0.5 nM ^3H-ketanserin, rat cortex membranes, 37° C., 30 min
Structures can show the parent of a compound that is named as a salt.
quantityMeasured: IC50 (nM)
Answers are plain numbers, in nM.

>>> readoutvalue("CC(C)N1CCN(CCN2CCC(n3cc(-c4ccc(F)cc4)c4cc(Cl)ccc43)CC2)C1=O [Compound 4e]")
5.4
>>> readoutvalue("Cc1ccc2c(c1)c(-c1ccc(F)cc1)c(C)n2C1CCN(CCN2CCNC2=O)CC1 [Compound 7a]")
3.4
>>> readoutvalue("Cc1c(-c2ccccc2)c2cc(Cl)ccc2n1C1=CCN(C)CC1 [Compound 6e, oxalate]")
9.4

I have 2 molecules here; please give me IC50 for each one.
1. Cc1ccc2c(c1)c(-c1ccc(F)cc1)cn2C1CCN(CCN2CCN(C(C)C)C2=O)CC1 [Compound 4h, oxalate]
2. CC(C)N1CCN(CCN2CCC(n3cc(-c4ccccc4)c4cc(Cl)ccc43)CC2)C1=O [Compound 4q]

Data returned:
2.7
25

I have 3 molecules here; please give me IC50 for each one.
1. CC(=O)N1CCN(CCN2CCC(n3cc(-c4ccc(F)cc4)c4cc(C)ccc43)CC2)C1=O [Compound 21a, oxalate]
2. Cc1ccc2c(c1)c(-c1ccc(F)cc1)cn2N1CCN(C)CC1 [Compound 20a]
3. Cc1ccc2c(c1)c(-c1ccc(F)cc1)cn2C1CCN(CCNC(=O)N(C)C)CC1 [Compound 13b]

Data returned:
[18, 13, 2.3]
